These entries and their values trace back to patent US10815274B2.

# Tested on: WT1- autologous APC
# RUN_DESCRIPTION: Cr51 release assay, cytotoxic CTL response vs unmodified autologous APC
# Format: cell-based, human
# APPLIED_CONDITIONS: HLA allele B3501; 50:1 E:T
Where a SMILES comes first, the peptide text is derived from it.
MEASURED_ENDPOINT: Cytotoxic CTL response, % vs WT1- autologous APC (%)
Quick note: give the figure in %, leave out the unit.

If you can, please state the reported Cytotoxic CTL response, % vs WT1- autologous APC value of C[C@@H](O)[C@H](NC(=O)[C@@H](NC(=O)[C@H](Cc1c[nH]cn1)NC(=O)[C@H](CC(N)=O)NC(=O)[C@H](CC(=O)O)NC(=O)[C@H](CO)NC(=O)[C@H](CCC(=O)O)NC(=O)[C@H](Cc1ccc(O)cc1)NC(=O)CN)[C@@H](C)O)C(=O)O [SEQ ID NO: 178] (H-GYESDNHTT-OH; N-terminus and C-terminus assumed) .
0

If you can, please state the reported Cytotoxic CTL response, % vs WT1- autologous APC value of CC(C)C[C@H](NC(=O)[C@H](CS)NC(=O)[C@H](CO)NC(=O)[C@@H]1CCCN1)C(=O)N[C@@H](CCC(=O)O)C(=O)N[C@@H](CO)C(=O)N[C@@H](CCC(N)=O)C(=O)N1CCC[C@H]1C(=O)N[C@@H](C)C(=O)O [SEQ ID NO: 162] (H-PSCLESQPA-OH; N-terminus and C-terminus assumed) .
0

If you can, please state the reported Cytotoxic CTL response, % vs WT1- autologous APC value of CSCC[C@H](NC(=O)[C@@H]1CCCN1C(=O)[C@H](CC(=O)O)NC(=O)[C@H](CCC(=O)O)NC(=O)[C@H](Cc1c[nH]cn1)NC(=O)[C@H](CCCCN)NC(=O)[C@H](Cc1ccccc1)NC(=O)[C@H](CO)NC(=O)[C@@H](N)Cc1c[nH]cn1)C(=O)O [SEQ ID NO: 165] (H-HSFKHEDPM-OH; N-terminus and C-terminus assumed) .
0

If you can, please state the reported Cytotoxic CTL response, % vs WT1- autologous APC value of CSCC[C@H](NC(=O)[C@H](CCC(N)=O)NC(=O)[C@H](CCC(N)=O)NC(=O)[C@@H]1CCCN1C(=O)[C@H](CCC(=O)O)NC(=O)[C@H](CO)NC(=O)CNC(=O)[C@H](CO)NC(=O)[C@H](C)N)C(=O)O [SEQ ID NO: 151] (H-ASGSEPQQM-OH; N-terminus and C-terminus assumed) .
5

----------
Task for the reader: assign each of the following molecules its reported Cytotoxic CTL response, % vs WT1- allo APC with restricting HLA allele.
# Test system: WT1- allo APC with restricting HLA allele
# RUN_DESCRIPTION: Cr51 release assay, cytotoxic CTL response vs unloaded allogeneic APC sharing restricting HLA allele
# Type: cell-based, human
# APPLIED_CONDITIONS: HLA allele A0201; 50:1 E:T
Where a SMILES comes first, the peptide text is derived from it.
Quick note: give the figure in %, leave out the unit.

If you can, please state the reported Cytotoxic CTL response, % vs WT1- allo APC with restricting HLA allele value of CC(C)C[C@H](NC(=O)[C@H](CO)NC(=O)[C@@H]1CCCN1C(=O)[C@@H]1CCCN1C(=O)[C@H](Cc1ccccc1)NC(=O)[C@H](Cc1c[nH]cn1)NC(=O)[C@@H]1CCCN1C(=O)[C@H](CC(C)C)NC(=O)[C@@H]1CCCN1)C(=O)O [SEQ ID NO: 144] (H-PLPHFPPSL-OH; N-terminus and C-terminus assumed) .
1

If you can, please state the reported Cytotoxic CTL response, % vs WT1- allo APC with restricting HLA allele value of CSCC[C@H](NC(=O)[C@H](CCC(N)=O)NC(=O)[C@H](CC(N)=O)NC(=O)[C@@H](N)Cc1c[nH]c2ccccc12)C(=O)N[C@@H](CC(N)=O)C(=O)N[C@@H](CC(C)C)C(=O)NCC(=O)N[C@@H](C)C(=O)N[C@H](C(=O)O)[C@@H](C)O [SEQ ID NO: 171] (H-WNQMNLGAT-OH; N-terminus and C-terminus assumed) .
0
